- Assay method text: chemical genetic growth profiling, strain panel (AID 1159580);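 also: tested at 20 µM; growth read once vehicle control cultures reached saturation at 30 °C; 1 = growth at the plate median or of vehicle wells; lower values mean less growth of the strain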
- Experimental conditions: S. cerevisiae deletion strains, growth OD, locus YJL154C, strain vps35, active compounds read low
Hit rate of the full screen: of about 5,500 compounds, about 2,000 (36%) were called active. About 18% were inconclusive and are not listed. The list shows a part of the results.
Property label: normalized growth
Form rule: numeric answer, no unit written next to it.

CCC(=O)O[C@H]1[C@H](O[C@@H]2[C@@H](C)[C@H](O[C@H]3C[C@@](C)(OC)[C@@H](O)[C@H](C)O3)[C@@H](C)C(=O)O[C@H](CC)[C@@](C)(O)[C@H](O)[C@@H](C)C(=O)[C@H](C)C[C@@]2(C)O)O[C@H](C)C[C@@H]1N(C)C | 1.01

Task item: Complete the entry with normalized growth for c1ccc(N=Nc2ccccc2)cc1
Reply: 0.984

Task item: Complete the entry with normalized growth for CNC(C)[C@H](O)c1ccccc1 (some centres undefined)
Reply: 0.986

Task item: Complete the entry with normalized growth for NCC1CCC(C(=O)O)CC1 (centres undefined)
Reply: 0.988

Task item: Complete the entry with normalized growth for c1cncc(C2CCCCN2)c1 (centres undefined)
Reply: 0.991

Task item: Complete the entry with normalized growth for CN[C@@H](C)[C@@H](O)c1ccccc1
Reply: 0.996

Task item: Complete the entry with normalized growth for CC(C[N+](C)(C)C)OC(N)=O (centres undefined)
Reply: 1.03

Task item: Complete the entry with normalized growth for CC(=O)OCC[N+](C)(C)C
Reply: 1.03

Task item: Complete the entry with normalized growth for CC(NCCc1ccc(O)cc1)C(O)c1ccc(O)cc1 (centres undefined)
Reply: 0.983

* * *

- Assay method text: chemical genetic growth profiling, strain panel (AID 1159580);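 also: tested at 20 µM; growth read once vehicle control cultures reached saturation at 30 °C; 1 = growth at the plate median or of vehicle wells; lower values mean less growth of the strain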
- Experimental conditions: S. cerevisiae deletion strains, growth OD, locus YCL061C, strain MRC1, active compounds read low
Hit rate of the full screen: of about 5,500 compounds, about 2,000 (36%) were called active. Another 18% or so got no clear call; they are omitted. The list shows a part of the results.
Property label: normalized growth
Form rule: numeric answer, no unit written next to it.

Example entries and their recorded answers appear below.
COc1cc(/C=C2\NC(=O)NC2=O)ccc1O | 1
CCN(CC)CCNC(=O)c1cc(Br)c(N)cc1OC | 0.984
COc1cc(O)c(C(=O)/C=C/c2ccccc2)c(OC)c1 | 0.922
COc1cc(O)c(C(=O)/C=C/c2ccc(OC)c(O)c2)c(OC)c1 | 0.954
CC(Oc1ccccc1)C(=O)N[C@@H]1C(=O)N2[C@@H]1SC(C)(C)[C@@H]2C(=O)O (stereo partly specified) | 0.998

Now consider a different compound.
Task item: Complete the entry with normalized growth for COc1cc(O)c(C(=O)/C=C/c2ccc(O)c(OC)c2)c(OC)c1
Reply: 0.984

* * *

- Assay method text: chemical genetic growth profiling, strain panel (AID 1159580);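 also: tested at 20 µM; growth read once vehicle control cultures reached saturation at 30 °C; 1 = growth at the plate median or of vehicle wells; lower values mean less growth of the strain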
- Experimental conditions: S. cerevisiae deletion strains, growth OD, locus YLR221C, strain rsa3
In all, about 5,500 compounds went through this assay and about 2,000 (36%) were called active. Not shown: some 18% with an inconclusive outcome. Rule as the data show it: active = normalized growth mostly below about 0.91 (no sharp cut-off); inconclusive = no clear call, values can overlap the other calls; inactive = mostly above about 0.92. Some of the results follow.
The categories you may choose from are active, inactive

Please review the following examples before continuing.
O=C(O)c1cc2ccccc2[nH]1 | inactive
CCCCCCCCCCCCCCCC[N+](C)(C)C | active
O=C(O)c1cc2ccccc2c(Cc2c(O)c(C(=O)O)cc3ccccc23)c1O | inactive
CC1CC2C3CC(F)C4=CC(=O)C=CC4(C)C3(F)C(O)CC2(C)C1(O)C(=O)CO (stereo not given) | inactive
CC(C)(O)[C@@H]1[C@H]2OC(=O)[C@@H]1[C@]1(O)C[C@H]3O[C@]34C(=O)O[C@H]2[C@]14C | inactive

Task item: Hey, what did the test say about COc1ccc(OC)c(C(O)C(C)N)c1 (stereo not given) ?
Reply: inactive

Task item: Hey, what did the test say about c1ccc(N=Nc2ccccc2)cc1 ?
Reply: inactive

Task item: Hey, what did the test say about COc1ccc2cc([C@H](C)C(=O)O)ccc2c1 ?
Reply: inactive

Task item: Hey, what did the test say about NC(=O)C(c1ccccc1)(c1ccccc1)C1CCN(CCc2ccc3c(c2)CCO3)C1 (stereo not given) ?
Reply: inactive

Task item: Hey, what did the test say about CC1=C(C(C)O)C2=NC1C=c1[nH]c(c(C)c1C(C)O)=Cc1[nH]c(c(CCC(=O)O)c1C)C=c1[nH]c(c(C)c1CCC(=O)O)=C2 (stereo not given) ?
Reply: inactive
